Data provenance is PubChem BioAssay AID1963967.

tested on: 855422-203-R-J1-PDC spheroids with HUVEC/MSC, viability; assay: Anticancer human tumor 855422-203-R-J1-PDC patient-derived bladder carcinoma cell line growth inhibition [PI3K]; details: second compound 0.316 µM; first compound 1 µM; stronger effect = lower value;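 further: agents incubated with spheroids for one week before read-out; 100% = DMSO vehicle-treated control wells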

compound: C=CC(=O)N1CCN(c2nc(=O)n(-c3c(C)ccnc3C(C)C)c3nc(-c4c(O)cccc4F)c(F)cc23)C(C)C1 (stereo not drawn) + CC(Nc1ncnc2nc[nH]c12)c1cc2cccc(Cl)c2c(=O)n1-c1ccccc1
system: 855422-203-R-J1-PDC spheroids with HUVEC/MSC, viability;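 further: agents incubated with spheroids for one week before read-out; 100% = DMSO vehicle-treated control wells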
viability, T/C / %: 121
//
compound: Cn1nccc1Nc1nccc(-c2ccn(C(CO)c3ccc(Cl)c(F)c3)c(=O)c2)n1 (stereo not drawn) + Cc1nc(NC(=O)N2CCCC2C(N)=O)sc1-c1ccnc(C(C)(C)C(F)(F)F)c1
system: 855422-203-R-J1-PDC spheroids with HUVEC/MSC, viability;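 further: agents incubated with spheroids for one week before read-out; 100% = DMSO vehicle-treated control wells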
viability, T/C / %: 92.2
//
compound: CC(C)NCC(C(=O)N1CCN(c2ncnc3c2C(C)CC3O)CC1)c1ccc(Cl)cc1 (stereo not drawn) + Cc1nc(NC(=O)N2CCCC2C(N)=O)sc1-c1ccnc(C(C)(C)C(F)(F)F)c1
system: 855422-203-R-J1-PDC spheroids with HUVEC/MSC, viability;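 further: agents incubated with spheroids for one week before read-out; 100% = DMSO vehicle-treated control wells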
viability, T/C / %: 47.2
